Molecular target: T1, human MerTK (human, UniProt Q12866 26-499)
T1 construct: also called HuMER
T1 sequence: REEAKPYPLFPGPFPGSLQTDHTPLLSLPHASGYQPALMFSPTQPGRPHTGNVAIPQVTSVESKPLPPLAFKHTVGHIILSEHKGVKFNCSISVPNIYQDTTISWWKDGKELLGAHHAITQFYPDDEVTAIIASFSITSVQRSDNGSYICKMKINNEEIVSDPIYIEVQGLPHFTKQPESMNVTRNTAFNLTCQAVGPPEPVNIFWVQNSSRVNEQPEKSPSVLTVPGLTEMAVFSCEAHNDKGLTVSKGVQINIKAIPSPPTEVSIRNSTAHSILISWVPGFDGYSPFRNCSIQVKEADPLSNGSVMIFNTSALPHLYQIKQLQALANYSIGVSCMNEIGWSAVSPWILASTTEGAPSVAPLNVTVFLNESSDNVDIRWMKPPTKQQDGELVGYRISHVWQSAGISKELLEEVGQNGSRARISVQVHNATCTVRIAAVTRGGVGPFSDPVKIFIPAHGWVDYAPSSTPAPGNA
Experiment: SPR BIAcore T200, Ab captured, 25C
Experimental: All binding affinity determinations were obtained using Surface Plasmon Resonance (SPR) measurements from a BIAcore™-T200 instrument. Briefly, each rabbit or humanized antibody was captured to achieve approximately 100 RU (Response Units). […] Association rates (kₒₙ) and dissociation rates (koff) were calculated using a simple one-to-one Langmuir binding model (BIAcore T200 evaluation software version 2.0). The equilibrium dissociation constant (KD) was calculated as the ratio koff/kₒₙ.
The entries below come with measured Kd values attached.
ENDPOINT_LABEL: Kd (nM)

1) Rbt18G7 (antibody, V domains shown, Recombinant rabbit monoclonal antibody, Expi293, protein A purified) VH: QSLEESGGRLVTPGTPLTLTCTVSGIDLSSYALGWVRQAPGKGLEYIGIISSTGTTYYATWAKGRFTISKTSSTTVDLKITGPTTEDTATYFCARGAYAGYVAFGPYYFHIWGPGTLVTISL VL: DIVMTQTPASVEAAVGGTVTIKCQASQSISNFLAWYQQKPGQPPKVLIYAASHLASGVPSRFKGSGSGTQFTLTISDLECADAATYYCQSYFYSSTSIYNAFGGGTEVVVR ... 2.3
2) Rbt13D8 (antibody, V domains shown, Recombinant rabbit monoclonal antibody, Expi293, protein A purified) VH: QSLEESGGRLVTPGTPLTLTCTVSGFSFSSYSMGWVRQAPGKGPEYIGVISASGTTYYASWVNGRFTISKTSTTMDLKMTSPTAADTATYFCARAAFTAYNRGSCVIHRLDLWGQGTLVTVSS VL: AQVLTQTASSVSAAVGGTVTINCQASQSVYDSKWLAWYQQKPGQPPKLLIYSASTLASGVPSRFKGSGSGTQFTLTISDLECDDAATYYCAGAYTDNIVFGGGTEVVVK ... 4.3
3) Rbt12H4 (antibody, V domains shown, Recombinant rabbit monoclonal antibody, Expi293, protein A purified) VH: QSVEESGGRLVTPGTPLTVTCTVSGFSLSVYGMGWVRQAPGKGLEYIGFINNVGNTYYASWAKGRFTISKTSTTVDLKITSPTTEDTATYFCAKGGGGDWGYFNIWGPGTLVTVSL VL: DVVMTQTPASVEAAVGGTVTIKCQASQSIGNALAWYQQKPGQRPKLLIYAASNLASGVPSRFAGSGSGTQFTLTISDLECADAATYYCQTYYAINRYGGAFGGGTEVVVK ... 18
4) Rbt10F7 (antibody, V domains shown, Recombinant rabbit monoclonal antibody, Expi293, protein A purified) VH: QSVEESGGRLVTPGTPLTLTCTVSGFSLSGYAMSWVRQAPGKGLEYIGVISSSGSSYYPSWAKGRFTISKTSTTVDLQITSPTTEDTATYFCARVQFYVGYAVYGYGIIDRLDLWGQGTLVTVSS VL: AAVLTQTPSPVSATMGGTVSISCQSSKSVYNNNWLSWYQQKPGQPPKLLIYRASTLESGVPSRFKGSGSGTQFTLTISDVHCDDAATYFCAGGYSSSSSANAFGGGTEVVVK ... 7
5) Rbt13B4 (antibody, V domains shown, Recombinant rabbit monoclonal antibody, Expi293, protein A purified; also called Rb13B4) VH: QSVEESGGRLVTPGTPLTLTCTVSGFSLSSYAMGWVRQAPGKGLEWIGIINSYGNTYYANWAKGRFTISRTSTTVDLRMPSLTTEDTATYFCARDPGVSSNLWGPGTLVTVSS VL: DVVMTQTPASVSEPVGGTVTIKCQASQNIYSGLAWYQQKPGQPPKLLIYGASKLASGVSSRFKGSGSGTEFTLTISDLECADAATYYCQATYYSSNSVAFGGGTEVVVK ... 2.9
